B1: NET1 (parent)
chain: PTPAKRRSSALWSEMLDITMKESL

Variants of: B1
Procedure Text: protein stability index of a GFP-peptide fusion (GPS, HEK-293T) (PSI 1-6); higher = more stable;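 further: lentivirally expressed fusions sorted by FACS into six bins by GFP to DsRed ratio, PSI derived from sequencing read proportions per bin multiplied by bin number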
Recorded Conditions: c terminus: a fixed tail appended
Could you please report measured protein stability index for the items listed next?
Answers are plain numbers.

Some entries whose results are on file:
[[record]]
residue_change = "D17Q"
parameter = "protein stability index"
observed = 1.85

[[record]]
residue_change = "E22R"
parameter = "protein stability index"
observed = 3.35

[[record]]
residue_change = "A10L"
parameter = "protein stability index"
observed = 2.55

[[record]]
residue_change = "A4H"
parameter = "protein stability index"
observed = 1.84

[[record]]
residue_change = "R6T"
parameter = "protein stability index"
observed = 1.76


State the recorded protein stability index for every item in the following list.
1. L24P
2. D17G
3. E22D
4. W12T

Result block:
[2.85, 2.25, 2.1, 4.19]

State the recorded protein stability index for every item in the following list.
1. M20A
2. W12N

Result block:
2.24
4.79
